TESTED SYSTEM: Cytochrome P450 3A4 (Homo sapiens)
ASSAY PROCEDURE: Cytochrome panel assay with activity outcomes; further: on the % scale 0 is the no-effect control and ±100 the full control effect
TEST CONTEXT: recombinant CYP, pro-luciferin dealkylation, luminescence, p450-cyp3a4; series mostly up to 57.1 µM
Procedure: The P450 gene superfamily is involved in the metabolism and clearance of xenobiotics. This assay used various human CYP P450 isozymes to measure the dealkylation of various pro-luciferin substrates to luciferin. The luciferin is then measured by luminescence after the addition of a luciferase detection reagent. […] Inhibitors and some substrates limit the production of luciferin, and decrease measured luminescence. […] 8, Detection, 1 sec, ViewLux luminescent read […]
About 5,100 (32%) of roughly 16,000 compounds were called active. Inconclusive results (about 25%) are left out. Some of the results follow.

MOLECULE: CCCCNC(=O)C1CC(=O)N(CCC(C)C)C1 (stereo unspecified)
activity, negative = inhibition: 0.276% [at 11.4 µM] (inactive)
--
MOLECULE: O=S(=O)(c1ccccc1)N1CN2CN(C1)CN(S(=O)(=O)c1ccccc1)C2
activity, negative = inhibition: -1.65% [at 11.4 µM] (inactive)
--
MOLECULE: CC(C)(C)NC(=O)CSC(=Nc1ccc(F)cc1)NC#N
activity, negative = inhibition: -11.3% [at 2.29 µM] (inactive)
--
MOLECULE: CC/C=C\CC[C@H](O)C1=CCCCC1=O
activity, negative = inhibition: -12.1% [at 11.4 µM] (inactive)
--
MOLECULE: O=C(O)[C@@H](c1ccccc1)[C@@H](C(=O)O)c1ccccc1
activity, negative = inhibition: -6.94% [at 11.4 µM] (inactive)
--
MOLECULE: CC(=O)OC[C@@H]1O[C@@H](O/N=C2/C[C@@H](O)[C@@H](O)[C@@H]3[C@@H]4C(=O)N(C5CCCCC5)C(=O)[C@H]4CC[C@H]23)[C@H](OC(C)=O)[C@H](OC(C)=O)[C@@H]1OC(C)=O
activity, negative = inhibition: -4% [at 11.4 µM] (inactive)
--
MOLECULE: COc1ccc(S(=O)(=O)N2CCCCCC2)cc1N(C)S(=O)(=O)c1ccc(Cl)cc1
activity, negative = inhibition: -26.2% [at 2.29 µM] (inactive)
--
MOLECULE: O=C(O)[C@@H]1[C@@H]2C[C@H]([C@@H](Br)[C@H]2N2C(=O)CCC2=O)[C@@H]1C(=O)O
activity, negative = inhibition: 2.42% [at 11.4 µM] (inactive)
--
MOLECULE: CC1(C)CC(=O)C(C(c2cccc(O)c2O)C2C(=O)CC(C)(C)CC2=O)C(=O)C1
activity, negative = inhibition: -5.88% [at 11.4 µM] (inactive)
--
MOLECULE: COc1ccc(/C=N/NC(=O)c2cc(-c3ccc(C)cc3C)nc3ccccc23)cc1COC(C)=O
activity, negative = inhibition: 14.1% [at 0.457 µM] (inactive)
--
MOLECULE: Cc1cccc2c1Oc1ccccc1[C@@H]2NC(=O)c1ccc([N+](=O)[O-])cc1
activity, negative = inhibition: -14% [at 11.4 µM] (inactive)
--
MOLECULE: CN(C)CCNc1ccccn1
activity, negative = inhibition: -5.4% [at 11.4 µM] (inactive)
--
MOLECULE: Cc1nc(SCC(=O)Nc2c(C)n(C)n(-c3ccccc3)c2=O)nc(C)c1C
activity, negative = inhibition: -4.78% [at 11.4 µM] (inactive)
--
MOLECULE: O=C(Nc1cc(C(F)(F)F)ccc1-n1cncn1)c1ccc(Br)cc1
activity, negative = inhibition: -10.9% [at 2.29 µM] (inactive)
--
MOLECULE: O=C(O)C/C(=C\c1ccccc1)C(=O)O
activity, negative = inhibition: -16.3% [at 11.4 µM] (inactive)
--
MOLECULE: CCOC(=O)C[C@@H](C(=O)OCC)[C@@H]1CCCCC1=O
activity, negative = inhibition: -10.4% [at 11.4 µM] (inactive)
